# TEST_SYSTEM: human IL-17A (Homo sapiens)
# Construct: purchased R&D Systems 7955-IL/CF
# MEASUREMENT_PROTOCOL: IL-17A AlphaLISA competition assay (block of IL-17A binding to its receptor IL-17RA)
# CONDITION_LABEL: mean IC50 (n≥2), block of IL-17A binding to IL-17RA
Recorded pIC50 for the following molecules
pIC50 field: float, defined as -log10 of concentration (mol/L).

CCc1nocc1C(=O)N[C@H](C(=O)Nc1cc([C@@H](COC)N2CC(F)(F)CNC2=O)ccn1)C1CCC(F)(F)CC1 = 7.28
Cn1ccnc1C(=O)N[C@H](C(=O)Nc1cc(C(NC(=O)CCC(F)(F)F)C2CC2)ccn1)C1CCC(F)(F)CC1 (stereo partly shown) = 5.21
Cn1nccc1C(=O)NC(C(=O)Nc1cc(C(NC(=O)CCC(F)(F)F)C2CC2)ccn1)C1CCC(F)(F)CC1 (stereo not shown) = 6.20

With those in mind, consider the next molecule.
Req: # query: pIC50 of entry COCC(c1ccnc(NC(=O)[C@@H](NC(=O)c2ccnn2C)[C@H]2CC[C@H](C)CC2)c1)N1C[C@@H](C(F)(F)F)NC1=O (single isomer, unassigned)
Resp: 7.92

---

Sequence of the target: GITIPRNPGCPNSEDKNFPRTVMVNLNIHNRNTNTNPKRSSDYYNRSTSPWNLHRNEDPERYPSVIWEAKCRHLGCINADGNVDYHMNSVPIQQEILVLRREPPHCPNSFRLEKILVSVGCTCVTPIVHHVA
Recorded pIC50 for the following molecules
pIC50 field: float, defined as -log10 of concentration (mol/L).

Please review the entries below; each comes with its answer.
Cc1cc(COC(=O)N[C@H](C(=O)Nc2cc(CN3C[C@@H](C(F)(F)F)NC3=O)ccn2)C2CCC(F)(F)CC2)no1 = 5.71
COCC(c1ccnc(NC(=O)[C@@H](NC(=O)c2ncccc2C)[C@H]2CC[C@H](C)CC2)c1)N1C[C@@H](C(F)(F)F)NC1=O (stereo partly drawn) = 5.71

With those in mind, consider the next molecule.
Req: # query: pIC50 of entry `O=C(N[C@H](C(=O)Nc1cc(CN2C[C@@H](C(F)(F)F)NC2=O)ccn1)C1CCC(F)(F)CC1)c1ccnn1C1CC1`
Resp: 6.48

---

Protein target, amino acids: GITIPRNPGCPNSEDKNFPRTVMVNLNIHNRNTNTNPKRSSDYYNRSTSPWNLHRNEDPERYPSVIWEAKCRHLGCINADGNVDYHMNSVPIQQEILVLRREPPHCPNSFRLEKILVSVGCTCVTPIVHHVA
Binary call on IC50 with cut-off 400 nM: strictly below means MET, and equality or higher means NOT MET.

COC[C@H](c1ccnc(NC(=O)C(NC(=O)c2nonc2C2CC2)C2CCC(F)CC2)c1)N1C[C@@H](C(F)(F)F)NC1=O (single isomer, unassigned) = MET
CC1(C)CN(Cc2ccnc(NC(=O)[C@@H](NC(=O)c3nonc3C3CC3)[C@H]3CC[C@H](C)CC3)c2)C(=O)N1 = MET
COC[C@H](c1ccnc(NC(=O)[C@@H](NC(=O)c2nonc2C2CC2)C2CCC(F)(F)CC2)c1)N1C[C@@H](C(F)(F)F)NC1=O = MET
COCC(NC(=O)CCC(F)(F)F)c1ccnc(NC(=O)C(NC(=O)c2nonc2C)C2CCC(C)CC2)c1 (stereo not drawn) = MET
CCc1nonc1C(=O)NC(C(=O)Nc1cc(C(CC)NC(=O)CCC(F)(F)F)ccn1)C1CCC(F)(F)CC1 (stereo in doubt) = MET

# ---- query compound ----
Req: Determine if `Cc1n[nH]c(C)c1Cc1ccnc(NC(=O)[C@@H](NC(=O)OC(C)(C)C)[C@H]2CC[C@H](C)CC2)c1` shows IC50 strictly lower than 400 nM.
Resp: NOT MET

---

Target sequence: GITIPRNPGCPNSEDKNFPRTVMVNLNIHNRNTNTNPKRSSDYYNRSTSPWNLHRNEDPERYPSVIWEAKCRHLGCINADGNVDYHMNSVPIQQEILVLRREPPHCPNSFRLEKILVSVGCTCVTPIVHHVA
Where a name gives a salt, the structure may show the parent alone.
EXPERIMENTAL_ENDPOINT: IC50 (nM)
Express your answer in nM, writing the number without its unit.

Please review the entries below; each comes with its answer.
COCC(c1ccnc(NC(=O)[C@@H](NC(=O)c2conc2C(C)C)[C@H]2CC[C@H](C)CC2)c1)N1C[C@@H](C(F)(F)F)NC1=O (single isomer, unassigned) [Example 89] = 11
CCn1nccc1C(=O)N[C@H](C(=O)Nc1cc([C@@H](C)N2C[C@@H](C(F)(F)F)NC2=O)ccn1)[C@H]1CC[C@H](C)CC1 [Example 239] = 16
CCC(c1ccnc(NC(=O)C(NC(=O)c2ccnn2CC)C2CCC(C)CC2)c1)N1CC(C(F)(F)F)NC1=O (centres unmarked) [Example 258] = 9
CCc1nocc1C(=O)NC(C(=O)Nc1cc(CC2=C[C@@H](C(F)(F)F)NC2=O)ccn1)C1CCC(F)(F)CC1 (stereo in doubt) [Example 216] = 137

Req: # query: IC50 of entry Cc1nonc1C(=O)N[C@H](C(=O)Nc1cc(C(C2CC2)N2C[C@@H](C(F)(F)F)NC2=O)ccn1)C1CCC(F)(F)CC1 (single isomer, unassigned) [Example 164]
Resp: 35

Req: # query: IC50 of entry CC(C)(C)OC(=O)N[C@H](C(=O)Nc1cc(CN2C(=O)CNC2=O)ccn1)C1CCC(F)(F)CC1 [Example 28]
Resp: 8400

Req: # query: IC50 of entry CC(C)n1nccc1C(=O)N[C@H](C(=O)Nc1cc([C@@H](C)NC(=O)CCC(F)(F)F)ccn1)C1CCC(F)(F)CC1 [Example 167]
Resp: 222

Req: # query: IC50 of entry COC[C@H](c1ccnc(NC(=O)[C@@H](NC(=O)Cc2cccc(C#N)c2)C2CCC(F)(F)CC2)c1)N1C[C@@H](C(F)(F)F)NC1=O [Example 206]
Resp: 157

Req: # query: IC50 of entry COC[C@H](c1ccnc(NC(=O)C(NC(=O)c2nonc2C)C2CCC(C)(F)CC2)c1)N1C[C@@H](C(F)(F)F)NC1=O (single isomer, unassigned) [Example 298]
Resp: 85

Req: # query: IC50 of entry C[C@@H]1CNC(=O)N1Cc1ccnc(NC(=O)[C@@H](NC(=O)OC(C)(C)C)[C@H]2CC[C@H](C)CC2)c1 [Example 29]
Resp: 428

Req: # query: IC50 of entry C[C@@H](OC(C)(C)C)[C@H](NC(=O)c1nonc1C1CC1)C(=O)Nc1cc(CN2C[C@@H](C(F)(F)F)NC2=O)ccn1 [Example 102]
Resp: 356

Req: # query: IC50 of entry NCC1(c2nocc2C(=O)N[C@H](C(=O)Nc2cc(CN3C[C@@H](C(F)(F)F)NC3=O)ccn2)C2CCC(F)(F)CC2)CC1 [Example 22, HCl salt]
Resp: 9230

Req: # query: IC50 of entry CC(C)(C)OC(=O)NCC1(c2nocc2C(=O)N[C@H](C(=O)Nc2cc(CN3C[C@@H](C(F)(F)F)NC3=O)ccn2)C2CCC(F)(F)CC2)CC1 [Example 19]
Resp: 843

Req: # query: IC50 of entry COC[C@H](c1ccnc(NC(=O)[C@@H](NC(=O)c2ccnn2C(C)C)C2CCC(Cl)CC2)c1)N1C[C@@H](C(F)(F)F)NC1=O (some centres unmarked) [Example 312]
Resp: 121

Req: # query: IC50 of entry COCC(NC(=O)CCC(F)(F)F)c1ccnc(NC(=O)[C@@H](NC(=O)c2ccnn2C)C2CCC(F)(F)CC2)c1 (single isomer, unassigned) [Example 143]
Resp: 3230

Req: # query: IC50 of entry Cc1nonc1C(=O)N[C@H](C(=O)Nc1cc([C@@H](C)N2C[C@@H](C(F)(F)F)NC2=O)ccn1)[C@H]1CC[C@H](C)CC1 [Example 237]
Resp: 22

Req: # query: IC50 of entry Cn1nccc1C(=O)N[C@H](C(=O)Nc1cc([C@H](NC(=O)CCC(F)(F)F)C2CC2)ccn1)C1CCC(F)(F)CC1 [Example 107]
Resp: 177

---

Parameter pIC50, tested on human IL-17A (Homo sapiens, UniProt Q16552), listed per item.
pIC50 field: float, defined as -log10 of concentration (mol/L).

Please review the entries below; each comes with its answer.
CCc1nocc1C(=O)N[C@@H](COC(C)(C)C(F)(F)F)C(=O)Nc1cc([C@@H](COC)N2C[C@@H](C(F)(F)F)NC2=O)ccn1 = 7.57
COC[C@H](c1ccnc(NC(=O)C(NC(=O)c2ccnn2C)C2CCC(F)CC2)c1)N1C[C@@H](C(F)(F)F)NC1=O (single isomer, unassigned) = 7.08
CCc1nocc1C(=O)N[C@H](C(=O)Nc1cc([C@@H](COC)N2C[C@@H](C(F)(F)F)NC2=O)ccn1)[C@H]1CCCC(F)(F)C1 (single isomer, unassigned) = 7.33
COCC(c1ccnc(NC(=O)[C@@H](NC(=O)c2nonc2C2CC2)C2CCC(F)(F)CC2)c1)[C@@H]1C[C@@H](C(F)(F)F)NC1=O (single isomer, unassigned) = 6.20

Req: Lab request: please report pIC50 under test system human IL-17A (Homo sapiens, UniProt Q16552) for COCC(c1ccnc(NC(=O)[C@@H](NC(=O)Cc2cc(C)no2)[C@H]2CC[C@H](C)CC2)c1)N1C[C@@H](C(F)(F)F)NC1=O (single isomer, unassigned)
Resp: 7.19
